- System: HOP-92
- test-summary: NCI tumour cell line growth inhibition, 48 h
Active and inactive are the calls of the source. Rule as the data show it: active = GI50 up to about 1.1 µM and inactive = higher.
Pick one and only one: active, inactive

| compound | discrete-label |
| --- | --- |
| C[C@]12CC(C#N)C(=O)C(O)=C1CC[C@@H]1C2CC[C@@]2(C)C1CC[C@@H]2O (stereo partly specified) | inactive |

Exercise: Hey, what did the test say about CC(C)(C)OC(=O)NCCC1SC2C=CC1C2 (stereo unspecified) ?
Solution: inactive

---

- Test system: IGROV-1
- test-summary: NCI tumour cell line growth inhibition, 48 h
Calls of active or inactive are those of the source. No stated cut-off is given here; in the data, active = GI50 up to about 1.1 µM and inactive = higher.
As shown below, each of these compounds has a reported GI50 value.

In the examples that follow, each entry is paired with its recorded GI50.
| compound | GI50 |
| --- | --- |
| N#CC1(C#N)C(C#N)(C#N)C1(C#N)C(N)=O | > 100 µM (inactive) |
| COc1ccc(/C=C2\N=C(c3ccccc3)N(NC3=NC(=O)CC(=O)N3)C2=O)cc1 | > 100 µM (inactive) |
| N#CCCN(CCC#N)c1ccc(/C=C2\N=C(c3ccccc3)N(NC(=O)c3ccncc3)C2=O)cc1 | > 100 µM (inactive) |
| CC1C(c2ccccc2)N(C)C(c2ccccc2)C(C)C1(O)c1ccccc1 (configuration not stated) | > 100 µM (inactive) |

Exercise: I have this compound here, NC(=O)N/N=C(/c1nc2ccc([N+](=O)[O-])cc2nc1O)C(O)c1ccco1 (configuration not stated) , and I need its recorded GI50.
Solution: 73.3 µM (inactive)

Exercise: Cool, now Cc1cc2cc3c(C)cc(=O)oc3c(C)c2o1 [TRIOXSALEN]
Solution: > 100 µM (inactive)

Exercise: Item: "COc1ccc(Cl)cc1NC(=O)O/N=C(\Cl)C(C)C"
Solution: 12.2 µM (inactive)

Exercise: Same thing, different compound: "CC(=O)Nc1ccc(NC(=O)CC(=O)Nc2ccc(NC(C)=O)cc2)cc1"
Solution: > 100 µM (inactive)
